# METHOD_SUMMARY: in vivo
# RUN_PARAMETERS: Wistar, rat, po, 0.6 mg/kg
MEASURED_ENDPOINT: half-life at 24 h (h)

>>> test_value("FC(F)c1cncc(-c2ccc3ncc4nnc(C5=CCCOCC5)n4c3c2)c1")
4

====

# METHOD_SUMMARY: in vivo
# RUN_PARAMETERS: mouse, iv, 0.3 mg/kg
MEASURED_ENDPOINT: Vd at 24 h (L/kg)

>>> test_value("FC(F)c1cncc(-c2ccc3ncc4nnc(C5=CCCOCC5)n4c3c2)c1")
3.7

====

# METHOD_SUMMARY: in vivo
# RUN_PARAMETERS: mouse, iv, 0.3 mg/kg
MEASURED_ENDPOINT: clearance at 24 h (mL/min/kg)

>>> test_value("FC(F)c1cncc(-c2ccc3ncc4nnc(C5=CCCOCC5)n4c3c2)c1")
135

Data origin, for the record: ChEMBL document CHEMBL4837246
